The compounds listed here are annotated with their Ratio.
assay_method_text: Selectivity ratio (hNK-2/hNK-3) of the compound
Answer with the value's number alone.

Record excerpt, results attached:
- CC(C)[C@H](NC(=O)c1c(CN(C)C)c(-c2ccccc2)nc2ccccc12)c1ccccc1: 16
- CC[C@H](NC(=O)c1c(CN2CCNCC2)c(-c2ccccc2)nc2ccccc12)c1ccccc1: 4.7

Req: Request the reported Ratio associated with "C[C@H](NC(=O)c1c(CN2CCC(N)CC2)c(-c2ccccc2)nc2ccccc12)C1CCCCC1"
Resp: 1.1

Req: I'd like to know its Ratio. The compound in question is "CC[C@H](NC(=O)c1c(CN2CCN(C3CCCCC3)CC2)c(-c2ccccc2)nc2ccccc12)c1ccccc1"
Resp: 1.3
